test description: Protein binding in human plasma
Assay type: ADME, cell-free
measurement setup: read-out: PPB (converted)
metric: fraction unbound
Keep it simple and answer with nothing but the number.

In: Read the entry "COC(=O)N(CC(=O)O)Cc1cc(OCc2nc(-c3ccc(Cl)cc3)oc2C)ccc1F" and write its reported fraction unbound.
Out: 0.003

###

tested system: Peroxisome proliferator-activated receptor alpha (Homo sapiens, UniProt Q07869)
Sequence (Q07869 whole entry): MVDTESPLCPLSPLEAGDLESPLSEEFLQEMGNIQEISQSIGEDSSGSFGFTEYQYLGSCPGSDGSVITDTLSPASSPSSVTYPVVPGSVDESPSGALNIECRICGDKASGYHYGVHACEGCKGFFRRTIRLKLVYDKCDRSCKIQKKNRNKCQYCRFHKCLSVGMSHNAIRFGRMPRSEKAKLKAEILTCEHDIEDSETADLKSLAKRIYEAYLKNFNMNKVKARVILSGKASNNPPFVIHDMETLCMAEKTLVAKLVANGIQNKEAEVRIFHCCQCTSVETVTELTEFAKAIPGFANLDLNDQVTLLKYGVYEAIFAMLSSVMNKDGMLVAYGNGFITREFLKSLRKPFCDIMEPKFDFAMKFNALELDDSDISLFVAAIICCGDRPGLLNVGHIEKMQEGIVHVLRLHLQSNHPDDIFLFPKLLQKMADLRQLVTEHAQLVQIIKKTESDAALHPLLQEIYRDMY
test description: Agonist activity at full length human PPAR-alpha transfected in human HepG2 cells by luciferase reporter gene assay
Type: cell-based
metric: pEC50
Convention used: pEC50 is expressed as -log10 of the molar concentration.

In: Read the entry "COC(=O)N(CC(=O)O)Cc1cc(OCc2nc(-c3ccc(Cl)cc3)oc2C)ccc1F" and write its reported pEC50.
Out: 8.30

###

tested system: Peroxisome proliferator-activated receptor gamma (Homo sapiens, UniProt P37231)
Sequence (P37231 whole entry, the tested form may be a part): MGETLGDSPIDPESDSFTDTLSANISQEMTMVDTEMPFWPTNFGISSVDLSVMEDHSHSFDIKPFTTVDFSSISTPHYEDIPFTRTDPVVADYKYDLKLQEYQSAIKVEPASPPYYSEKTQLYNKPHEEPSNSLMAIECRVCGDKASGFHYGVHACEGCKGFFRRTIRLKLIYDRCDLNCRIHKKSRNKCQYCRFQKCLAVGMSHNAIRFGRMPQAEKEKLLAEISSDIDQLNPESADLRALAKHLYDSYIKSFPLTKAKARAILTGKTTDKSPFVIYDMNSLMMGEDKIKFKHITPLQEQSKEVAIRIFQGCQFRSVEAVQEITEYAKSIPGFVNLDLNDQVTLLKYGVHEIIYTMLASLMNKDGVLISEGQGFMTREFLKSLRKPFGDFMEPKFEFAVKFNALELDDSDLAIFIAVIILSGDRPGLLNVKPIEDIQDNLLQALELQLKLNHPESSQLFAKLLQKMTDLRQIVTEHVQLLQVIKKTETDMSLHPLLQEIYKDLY
test description: Agonist activity at Gal4-tagged human PPAR-gamma expressed in HEK cells by transactivation assay
Assay type: cell-based, HEK293
metric: pEC50
Convention used: pEC50 is expressed as -log10 of the molar concentration.

Below are worked cases with known answers.
# smiles representation, pEC50
rows = [
    ("COC(=O)N(CC(=O)O)Cc1cc(OCc2nc(-c3ccc(F)cc3)oc2C)ccc1F", 5.00),
    ("COc1ccc(OC(=O)N(CC(=O)O)Cc2cc(OCc3nc(-c4ccc(Cl)cc4)oc3C)ccc2F)cc1", 5.96),
    ("Cc1ccc(OC(=O)N(CC(=O)O)Cc2cc(OCc3nc(-c4ccc(Cl)cc4)oc3C)ccc2F)cc1", 5.90),
    ("COC(=O)N(CC(=O)O)Cc1cc(OCc2nc(-c3ccc(C(C)(C)C)cc3)oc2C)ccc1F", 6.38),
    ("Cc1oc(-c2ccc(Cl)cc2)nc1COc1ccc(F)c(CN(CC(=O)O)C(=O)OCCCF)c1", 5.36),
]

In: Read the entry "COC(=O)N(CC(=O)O)Cc1cc(F)cc(OCc2nc(-c3ccc(Cl)cc3)oc2C)c1" and write its reported pEC50.
Out: 5.55

In: Read the entry "Cc1oc(-c2ccc(Cl)cc2)nc1COc1ccc(F)c(CN(CC(=O)O)C(=O)OCC(C)C)c1" and write its reported pEC50.
Out: 5.82

In: Read the entry "CCCCOC(=O)N(CC(=O)O)Cc1cc(OCc2nc(-c3ccc(Cl)cc3)oc2C)ccc1F" and write its reported pEC50.
Out: 5.91

###

test description: Protein binding in dog plasma
Format: ADME, cell-free, Canis lupus familiaris
measurement setup: read-out: PPB (converted)
metric: fraction unbound
Keep it simple and answer with nothing but the number.

In: Read the entry "COC(=O)N(CC(=O)O)Cc1cc(OCc2nc(-c3ccc(Cl)cc3)oc2C)ccc1F" and write its reported fraction unbound.
Out: 0.005

###

test description: Plasma clearance in Balb/c mouse at 5 mg/kg, iv
Format: ADME, organism-based
metric: clearance (mL/min/kg)
Respond numerically; units are mL/min/kg and should not be typed.

In: Read the entry "COC(=O)N(CC(=O)O)Cc1cc(OCc2nc(-c3ccc(Cl)cc3)oc2C)ccc1F" and write its reported clearance.
Out: 13.8

###

test description: Plasma clearance in cynomolgus monkey at 1 mg/kg, iv
Assay type: ADME, organism-based, Macaca fascicularis
metric: clearance (mL/min/kg)
Respond numerically; units are mL/min/kg and should not be typed.

In: Read the entry "COC(=O)N(CC(=O)O)Cc1cc(OCc2nc(-c3ccc(Cl)cc3)oc2C)ccc1F" and write its reported clearance.
Out: 5.9

###

tested system: Glucocorticoid receptor (Homo sapiens)
Sequence (P04150 whole entry): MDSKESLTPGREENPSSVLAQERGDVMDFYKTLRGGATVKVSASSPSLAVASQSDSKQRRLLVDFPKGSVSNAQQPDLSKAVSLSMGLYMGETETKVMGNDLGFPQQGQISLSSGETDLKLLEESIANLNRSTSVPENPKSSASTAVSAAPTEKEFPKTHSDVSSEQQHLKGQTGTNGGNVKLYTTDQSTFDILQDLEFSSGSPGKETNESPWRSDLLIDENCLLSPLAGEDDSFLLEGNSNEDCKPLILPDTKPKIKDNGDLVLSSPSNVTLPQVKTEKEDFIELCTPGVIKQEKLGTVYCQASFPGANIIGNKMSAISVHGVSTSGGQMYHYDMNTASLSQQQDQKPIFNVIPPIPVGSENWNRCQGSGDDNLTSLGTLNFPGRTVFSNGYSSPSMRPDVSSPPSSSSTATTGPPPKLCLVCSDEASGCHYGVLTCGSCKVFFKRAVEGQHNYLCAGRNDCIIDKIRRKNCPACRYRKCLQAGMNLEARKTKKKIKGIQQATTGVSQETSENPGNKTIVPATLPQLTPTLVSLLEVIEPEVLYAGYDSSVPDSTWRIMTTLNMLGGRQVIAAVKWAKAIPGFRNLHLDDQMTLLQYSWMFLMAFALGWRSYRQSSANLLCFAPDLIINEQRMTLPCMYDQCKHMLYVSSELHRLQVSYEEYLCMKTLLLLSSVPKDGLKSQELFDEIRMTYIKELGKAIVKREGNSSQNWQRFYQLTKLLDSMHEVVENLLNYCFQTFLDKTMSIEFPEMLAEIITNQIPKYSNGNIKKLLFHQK
test description: Agonist activity at human GR by transactivation assay
pEC50: −log10 of the molar value.
metric: pEC50

In: Enter pEC50 (test system Glucocorticoid receptor (Homo sapiens)) for "COC(=O)N(CC(=O)O)Cc1cc(OCc2nc(-c3ccc(Cl)cc3)oc2C)ccc1F"
Out: < 4.60

###

test description: Volume of distribution at steady state in dog at 1 mg/kg, iv
Format: ADME, organism-based, Canis lupus familiaris
measurement setup: in vivo, read-out: Vdss
metric: Vd

In: Read the entry "COC(=O)N(CC(=O)O)Cc1cc(OCc2nc(-c3ccc(Cl)cc3)oc2C)ccc1F" and write its reported Vd.
Out: 2.1 L/kg

###

test description: Oral bioavailability in Balb/c mouse at 10 mg/kg
Format: ADME, organism-based
measurement setup: in vivo
metric: bioavailability (%)
Respond numerically; units are % and should not be typed.

In: Read the entry "COC(=O)N(CC(=O)O)Cc1cc(OCc2nc(-c3ccc(Cl)cc3)oc2C)ccc1F" and write its reported bioavailability.
Out: 66

###

test description: Protein binding in rat plasma
Type: ADME, cell-free
measurement setup: read-out: PPB (converted)
metric: fraction unbound
Keep it simple and answer with nothing but the number.

In: Read the entry "COC(=O)N(CC(=O)O)Cc1cc(OCc2nc(-c3ccc(Cl)cc3)oc2C)ccc1F" and write its reported fraction unbound.
Out: 0.004

###

test description: Agonist activity at hamster PPAR-alpha
Set-up: species or system Cricetinae
metric: EC50 (nM)
Respond numerically; units are nM and should not be typed.

In: Read the entry "COC(=O)N(CC(=O)O)Cc1cc(OCc2nc(-c3ccc(Cl)cc3)oc2C)ccc1F" and write its reported EC50.
Out: 178

###

Entries and their measured EC50 follow.
tested system: Peroxisome proliferator-activated receptor gamma (Homo sapiens)
test description: Agonist activity at Gal4-tagged human PPAR-gamma expressed in HEK cells by transactivation assay
Assay type: cell-based, HEK293
Respond numerically; units are µM and should not be typed.

Below are worked cases with known answers.
# smiles representation, EC50 [µM]
measured = [
    ("COC(=O)N(CC(=O)O)Cc1cc(OCc2nc(-c3ccc(C)cc3)oc2C)ccc1F", 2.18),
    ("COC(=O)N(CC(=O)O)Cc1cc(OCc2nc(-c3ccc(OC(F)(F)F)cc3)oc2C)ccc1F", 2.38),
]

In: Enter EC50 (test system Peroxisome proliferator-activated receptor gamma (Homo sapiens)) for "COC(=O)N(CC(=O)O)[C@@H](C)c1cccc(OCc2nc(-c3ccc(Cl)cc3)oc2C)c1"
Out: 2.86

In: Enter EC50 (test system Peroxisome proliferator-activated receptor gamma (Homo sapiens)) for "CCOC(=O)N(CC(=O)O)Cc1cc(OCc2nc(-c3ccc(Cl)cc3)oc2C)ccc1F"
Out: 4.27

In: Enter EC50 (test system Peroxisome proliferator-activated receptor gamma (Homo sapiens)) for "COC(=O)N(CC(=O)O)Cc1cc(OCc2nc(-c3ccc(C(F)(F)F)cc3)oc2C)ccc1F"
Out: 2.06

In: Enter EC50 (test system Peroxisome proliferator-activated receptor gamma (Homo sapiens)) for "CCCOC(=O)N(CC(=O)O)Cc1cc(OCc2nc(-c3ccc(Cl)cc3)oc2C)ccc1F"
Out: 2.01

In: Enter EC50 (test system Peroxisome proliferator-activated receptor gamma (Homo sapiens)) for "COC(=O)N(CC(=O)O)Cc1cc(OCc2nc(-c3ccccc3)oc2C)ccc1F"
Out: 8.61

In: Enter EC50 (test system Peroxisome proliferator-activated receptor gamma (Homo sapiens)) for "COC(=O)N(CC(=O)O)Cc1ccc(F)c(OCc2nc(-c3ccc(Cl)cc3)oc2C)c1"
Out: 9.17
